# Test System: Sphingosine kinase 2 (Homo sapiens)
# Sequence (Q9NRA0 whole entry): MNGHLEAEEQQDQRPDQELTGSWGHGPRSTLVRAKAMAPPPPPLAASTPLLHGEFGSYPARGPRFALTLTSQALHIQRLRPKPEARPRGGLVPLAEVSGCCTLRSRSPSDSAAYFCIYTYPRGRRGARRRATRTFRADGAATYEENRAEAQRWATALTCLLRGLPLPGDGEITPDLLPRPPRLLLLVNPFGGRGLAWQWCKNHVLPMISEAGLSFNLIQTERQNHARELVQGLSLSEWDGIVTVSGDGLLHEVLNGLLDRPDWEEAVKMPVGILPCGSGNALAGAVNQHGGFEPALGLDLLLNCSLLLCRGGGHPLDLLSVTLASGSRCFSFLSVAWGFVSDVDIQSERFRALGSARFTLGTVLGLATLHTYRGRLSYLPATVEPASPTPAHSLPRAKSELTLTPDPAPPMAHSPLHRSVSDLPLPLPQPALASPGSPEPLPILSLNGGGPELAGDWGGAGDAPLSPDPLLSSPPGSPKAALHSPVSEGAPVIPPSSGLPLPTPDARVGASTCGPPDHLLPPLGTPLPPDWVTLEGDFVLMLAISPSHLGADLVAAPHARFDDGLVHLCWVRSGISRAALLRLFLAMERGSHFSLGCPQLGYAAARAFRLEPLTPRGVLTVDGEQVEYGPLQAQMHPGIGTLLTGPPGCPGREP
Hi, quick share: literature IC50 data for Sphingosine kinase 2 (Homo sapiens), several sources combined.

The cases that follow already have their IC50 on record.
Inquiry: Output IC50 of `NC(=O)[C@H]1CCCN1C(=O)c1ccc(OCc2noc(-c3ccc(Cl)cc3)n2)cc1`
Reply text: > 10 µM

Inquiry: Output IC50 of `COc1ncc(-c2cc3c(c(NC(=O)CN4CCOCC4)c2)COC3)cc1NS(C)(=O)=O`
Reply text: > 10 µM

Inquiry: Output IC50 of `O=C(c1ccc(COc2cccc(OCc3ccccc3)c2)cc1)N1CCC[C@H]1CO`
Reply text: > 10 µM

Inquiry: Output IC50 of `NC(=O)CNC(=O)c1ccc(OCc2noc(-c3ccc(C(F)(F)F)cc3)n2)cc1`
Reply text: > 10 µM

Inquiry: Output IC50 of `CC(C)=CC(=O)CCC(=O)N1CCN(Cc2cc3nc(-c4cccc5[nH]ncc45)nc(N4CCOCC4)c3s2)CC1`
Reply text: > 1 µM

More entries:
Inquiry: Output IC50 of `CC(C)c1cccc(OCc2ccc(CN3CCC[C@@H]3CO)cc2)c1`
Reply text: < 0.0017 µM

Inquiry: Output IC50 of `O=C(c1cc([C@H]2CCCN2c2cc(F)cc(F)c2)c2oc(N3CCOCC3)cc(=O)c2c1)N1CCOCC1`
Reply text: > 50 µM

Inquiry: Output IC50 of `Cc1cc(CS(=O)(=O)c2ccccc2)cc(OCc2ccc(CN(C)CCO)cc2)c1`
Reply text: > 10 µM

Inquiry: Output IC50 of `CC(C)(C)c1csc(Nc2ccc(CCN3CC[C@H](O)C[C@@H]3CO)cc2)n1`
Reply text: > 10 µM

Inquiry: Output IC50 of `NCCNC(=O)c1ccc(COc2cccc(OCc3ccccc3)c2)cc1`
Reply text: 0.0416 µM

###

Hi, quick share: literature pIC50 data for Sphingosine kinase 2 (Homo sapiens, UniProt Q9NRA0), several sources combined.
# Test System: Sphingosine kinase 2 (Homo sapiens, UniProt Q9NRA0)
# Sequence (Q9NRA0 whole entry): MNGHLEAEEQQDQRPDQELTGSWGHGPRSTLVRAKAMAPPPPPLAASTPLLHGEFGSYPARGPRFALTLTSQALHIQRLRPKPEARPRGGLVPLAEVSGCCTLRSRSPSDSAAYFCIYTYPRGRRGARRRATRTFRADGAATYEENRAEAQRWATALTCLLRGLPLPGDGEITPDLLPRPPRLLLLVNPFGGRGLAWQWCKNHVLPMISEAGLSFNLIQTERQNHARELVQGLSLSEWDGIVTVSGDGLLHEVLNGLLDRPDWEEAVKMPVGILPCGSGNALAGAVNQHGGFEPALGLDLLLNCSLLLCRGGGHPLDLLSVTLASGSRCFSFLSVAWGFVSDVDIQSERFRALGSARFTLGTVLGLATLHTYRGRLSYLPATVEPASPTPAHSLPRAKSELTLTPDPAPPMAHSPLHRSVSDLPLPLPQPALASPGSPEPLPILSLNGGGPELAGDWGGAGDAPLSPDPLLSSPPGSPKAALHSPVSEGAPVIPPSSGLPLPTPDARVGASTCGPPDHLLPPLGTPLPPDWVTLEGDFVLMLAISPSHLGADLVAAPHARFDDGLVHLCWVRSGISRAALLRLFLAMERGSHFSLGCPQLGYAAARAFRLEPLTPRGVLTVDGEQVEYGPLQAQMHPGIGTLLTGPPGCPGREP
pIC50: −log10 of the molar value.

The cases that follow already have their pIC50 on record.
Inquiry: Output pIC50 of `NCCNC(=O)c1ccc(OCc2noc(-c3ccc(C(F)(F)F)cc3)n2)cc1`
Reply text: < 5.00

Inquiry: Output pIC50 of `O=C(NCCO)c1ccc(OCc2noc(-c3ccc(Cl)cc3)n2)cc1`
Reply text: < 5.00

Inquiry: Output pIC50 of `OC[C@H]1C[C@@H](O)CN1CCCc1ccc(Nc2nc(-c3ccc(Cl)c(Cl)c3)cs2)cc1`
Reply text: 6.57

Inquiry: Output pIC50 of `NC(=O)[C@@H]1CCCN1C(=O)c1ccc(OCc2noc(-c3ccc(Cl)cc3)n2)cc1`
Reply text: < 5.00

Inquiry: Output pIC50 of Cc1cc(CS(=O)(=O)c2ccccc2)cc(OCc2ccc(CN3CCCCC3CO)cc2)c1 (centres undefined)
Reply text: < 5.00

More entries:
Inquiry: Output pIC50 of `CCCCCCCCCCCCCC[C@H]1NC[C@H](N)[C@@H]1O`
Reply text: < 4.00

Inquiry: Output pIC50 of `N[C@@H](CO)[C@H](O)/C=C/CCCCCCCCCCCc1ccc(I)cc1`
Reply text: 4.88

Inquiry: Output pIC50 of `O=C(c1ccc(OCc2noc(-c3ccc(Cl)cc3)n2)cc1)N1CCC[C@H]1CO`
Reply text: < 5.00

Inquiry: Output pIC50 of `CCCCCCCCCCCCC/C=C/[C@@H](O)[C@@H](N)CO`
Reply text: 5.81

Inquiry: Output pIC50 of `O=S(=O)(Cc1cc(OCc2ccc(CN3CCC[C@@H]3CO)cc2)cc(C(F)(F)F)c1)c1ccccc1`
Reply text: < 5.00

Inquiry: Output pIC50 of `CCCCCCCCCCCCc1ccc(CCN2CCC[C@@H]2CO)cc1`
Reply text: 5.30

###

Target protein (sequence): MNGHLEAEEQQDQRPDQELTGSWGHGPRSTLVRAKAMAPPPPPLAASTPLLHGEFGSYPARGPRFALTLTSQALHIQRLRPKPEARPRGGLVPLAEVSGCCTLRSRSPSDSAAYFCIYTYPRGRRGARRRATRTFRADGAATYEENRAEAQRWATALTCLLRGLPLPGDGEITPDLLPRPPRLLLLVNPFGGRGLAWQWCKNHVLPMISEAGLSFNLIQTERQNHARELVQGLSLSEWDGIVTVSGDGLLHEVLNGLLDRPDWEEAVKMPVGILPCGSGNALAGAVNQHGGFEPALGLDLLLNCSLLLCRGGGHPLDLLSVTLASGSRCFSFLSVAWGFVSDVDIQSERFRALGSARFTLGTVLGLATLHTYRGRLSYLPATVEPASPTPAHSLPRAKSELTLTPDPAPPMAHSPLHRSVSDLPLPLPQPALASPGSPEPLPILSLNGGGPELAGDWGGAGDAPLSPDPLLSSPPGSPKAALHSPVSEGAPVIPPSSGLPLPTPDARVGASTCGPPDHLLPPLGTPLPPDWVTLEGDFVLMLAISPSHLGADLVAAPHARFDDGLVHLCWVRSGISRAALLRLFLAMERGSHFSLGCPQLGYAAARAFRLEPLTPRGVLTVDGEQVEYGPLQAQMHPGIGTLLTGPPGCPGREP
Hi, quick share: literature IC50 data for the protein given by its sequence, several sources combined.

The cases that follow already have their IC50 on record.
Inquiry: Output IC50 of `OC[C@H]1C[C@@H](O)CCN1CCc1ccc(Nc2nc(-c3cccc(F)c3)cs2)cc1`
Reply text: > 5 µM

Inquiry: Output IC50 of `CCCCCCCCCCCCC/C=C/[C@@H](O)[C@H](CO)N(C)C`
Reply text: > 80 µM

More entries:
Inquiry: Output IC50 of `Cc1cc(CS(=O)(=O)c2ccccc2)cc(OCCCCCCCN2CCC[C@@H]2CO)c1`
Reply text: > 10 µM
